- target of assay: HLA-A*02:01 (Homo sapiens, UniProt P04439, D140Y/D185E/D98H/E176V/E277Q/G131W/G231S/I119V/I121R/I166T/I218V/L300P/L318F/N151K/N90K/P208A/P217A/Q86G/Q94H/R138H/R169H/T345S)
- test summary: MHC binding assay: UV-ligand exchange with beta2m ELISA (exchange yield)
- experimental setup: binding to HLA-A*02:01, β2m ELISA
parameter: Peptide exchange (MHC class I binding score, peptide exchange yield)

{"columns": ["substance", "recorded value"],
 "data": [
  ["322 (TLMTSLPAL; listed as Homo sapiens) [compound 322]", "“+++” (≥50 = +++)"],
  ["271 (LVYPLELYPA; listed as Homo sapiens) [compound 271]", "“+++” (≥50 = +++)"],
  ["18 (YLVAKLVEV; listed as Homo sapiens) [compound 18]", "“++” (≥20% = ++)"],
  ["609 (ALWKQLLEL; listed as Homo sapiens) [compound 609]", "“+++” (≥50 = +++)"],
  ["245 (SMIDDLLGV; listed as Homo sapiens) [compound 245]", "“+++” (≥50 = +++)"],
  ["299 (YLLETSGNL; listed as Homo sapiens) [compound 299]", "“+++” (≥50 = +++)"],
  ["568 (TLYDIAHTPGV; listed as Homo sapiens) [compound 568]", "“++++” (≥75% = ++++)"],
  ["363 (KVLDVSDLESV; listed as Homo sapiens) [compound 363]", "“++” (≥20% = ++)"]
]}

Name the recorded Peptide exchange (MHC class I binding score, peptide exchange yield) for 523 (YQIPRTFTL; listed as Homo sapiens) [compound 523] . “++” (≥20% = ++)

Name the recorded Peptide exchange (MHC class I binding score, peptide exchange yield) for 101 (ILVGGGALATV; listed as Homo sapiens) [compound 101] . “+++” (≥50 = +++)

Name the recorded Peptide exchange (MHC class I binding score, peptide exchange yield) for 174 (ALAQYLITA; listed as Homo sapiens) [compound 174] . “+++” (≥50 = +++)

Name the recorded Peptide exchange (MHC class I binding score, peptide exchange yield) for 439 (YLLQEIYGI; listed as Homo sapiens) [compound 439] . “+++” (≥50 = +++)

Name the recorded Peptide exchange (MHC class I binding score, peptide exchange yield) for 160 (FLFDEEIEQI; listed as Homo sapiens) [compound 160] . “+++” (≥50 = +++)

Name the recorded Peptide exchange (MHC class I binding score, peptide exchange yield) for 49 (YLPAVFEEV; listed as Homo sapiens) [compound 49] . “+++” (≥50 = +++)

Name the recorded Peptide exchange (MHC class I binding score, peptide exchange yield) for 586 (KLKPGDLVGV; listed as Homo sapiens) [compound 586] . “+++” (≥50 = +++)

Name the recorded Peptide exchange (MHC class I binding score, peptide exchange yield) for 463 (SLVESHLSDQLTL; listed as Homo sapiens) [compound 463] . “+++” (≥50 = +++)

* * *

- target of assay: HLA-A*02:01 (Homo sapiens, UniProt P04439, D140Y/D185E/D98H/E176V/E277Q/G131W/G231S/I119V/I121R/I166T/I218V/L300P/L318F/N151K/N90K/P208A/P217A/Q86G/Q94H/R138H/R169H/T345S)
- test summary: MHC binding assay: UV-ligand exchange with beta2m ELISA (exchange yield)
- experimental setup: binding to HLA-A*02:01, β2m ELISA
parameter: Peptide exchange (MHC class I binding score, peptide exchange yield)

Reference set (6 entries):
{"columns": ["substance", "recorded value"],
 "data": [
  ["397 (YLFGERLLEC; listed as Homo sapiens) [compound 397]", "“+++” (≥50 = +++)"],
  ["63 (YLLPSGGSVTL; listed as Homo sapiens) [compound 63]", "“++” (≥20% = ++)"],
  ["204 (KIAENVEEV; listed as Homo sapiens) [compound 204]", "“++” (≥20% = ++)"],
  ["159 (GLVGNPLPSV; listed as Homo sapiens) [compound 159]", "“++++” (≥75% = ++++)"],
  ["333 (FLPDANSSV; listed as Homo sapiens) [compound 333]", "“++” (≥20% = ++)"],
  ["34 (ILVEADSLWVV; listed as Homo sapiens) [compound 34]", "“+++” (≥50 = +++)"]
]}

Name the recorded Peptide exchange (MHC class I binding score, peptide exchange yield) for 211 (LLWPGAALL; listed as Homo sapiens) [compound 211] . “++” (≥20% = ++)

Name the recorded Peptide exchange (MHC class I binding score, peptide exchange yield) for 108 (ALFPGVALLLA; listed as Homo sapiens) [compound 108] . “++++” (≥75% = ++++)

Name the recorded Peptide exchange (MHC class I binding score, peptide exchange yield) for 557 (KLYDDMIRL; listed as Homo sapiens) [compound 557] . “+++” (≥50 = +++)

* * *

- target of assay: HLA-A*02:01 (Homo sapiens, UniProt P04439, D140Y/D185E/D98H/E176V/E277Q/G131W/G231S/I119V/I121R/I166T/I218V/L300P/L318F/N151K/N90K/P208A/P217A/Q86G/Q94H/R138H/R169H/T345S)
- test summary: MHC binding assay: UV-ligand exchange with beta2m ELISA (exchange yield)
- experimental setup: binding to HLA-A*02:01, β2m ELISA
parameter: Peptide exchange (MHC class I binding score, peptide exchange yield)

Reference set (8 entries):
{"columns": ["substance", "recorded value"],
 "data": [
  ["387 (ALFQATAEV; listed as Homo sapiens) [compound 387]", "“++++” (≥75% = ++++)"],
  ["539 (ALFDAQAQV; listed as Homo sapiens) [compound 539]", "“+++” (≥50 = +++)"],
  ["531 (YTLPIASSIRL; listed as Homo sapiens) [compound 531]", "“+++” (≥50 = +++)"],
  ["5 (HLTEVYPEL; listed as Homo sapiens) [compound 5]", "“+++” (≥50 = +++)"],
  ["408 (VLDDSIYLV; listed as Homo sapiens) [compound 408]", "“++” (≥20% = ++)"],
  ["335 (YSLSSVVTV; listed as Homo sapiens) [compound 335]", "“+++” (≥50 = +++)"],
  ["207 (GLTSTNAEV; listed as Homo sapiens) [compound 207]", "“++” (≥20% = ++)"],
  ["496 (FLVEKQPPQV; listed as Homo sapiens) [compound 496]", "“+++” (≥50 = +++)"]
]}

Name the recorded Peptide exchange (MHC class I binding score, peptide exchange yield) for 146 (SLATAGDGLIEL; listed as Homo sapiens) [compound 146] . “++” (≥20% = ++)

Name the recorded Peptide exchange (MHC class I binding score, peptide exchange yield) for 604 (SILDRDDIFV; listed as Homo sapiens) [compound 604] . “+++” (≥50 = +++)

* * *

- target of assay: HLA-A*02:01 (Homo sapiens, UniProt P04439, D140Y/D185E/D98H/E176V/E277Q/G131W/G231S/I119V/I121R/I166T/I218V/L300P/L318F/N151K/N90K/P208A/P217A/Q86G/Q94H/R138H/R169H/T345S)
- test summary: MHC binding assay: UV-ligand exchange with beta2m ELISA (exchange yield)
- experimental setup: binding to HLA-A*02:01, β2m ELISA
parameter: Peptide exchange (MHC class I binding score, peptide exchange yield)

{"columns": ["substance", "recorded value"],
 "data": [
  ["277 (LLPPLESLATV; listed as Homo sapiens) [compound 277]", "“++” (≥20% = ++)"],
  ["428 (KLGHTDILVGV; listed as Homo sapiens) [compound 428]", "“++” (≥20% = ++)"]
]}

* * *

- target of assay: HLA-A*02:01 (Homo sapiens, UniProt P04439, D140Y/D185E/D98H/E176V/E277Q/G131W/G231S/I119V/I121R/I166T/I218V/L300P/L318F/N151K/N90K/P208A/P217A/Q86G/Q94H/R138H/R169H/T345S)
- test summary: MHC binding assay: UV-ligand exchange with beta2m ELISA (exchange yield)
- experimental setup: binding to HLA-A*02:01, β2m ELISA
- Description: Candidate peptides for T cell based therapies according to the present invention were further tested for their MHC binding capacity (affinity). The individual peptide-MHC complexes were produced by UV-ligand exchange, where a UV-sensitive peptide is cleaved upon UV-irradiation, and exchanged with the peptide of interest as analyzed. Only peptide candidates that can effectively bind and stabilize the peptide-receptive MHC molecules prevent dissociation of the MHC complexes. […]
parameter: Peptide exchange (MHC class I binding score, peptide exchange yield)

{"columns": ["substance", "recorded value"],
 "data": [
  ["503 (SLNHFTHSV; listed as Homo sapiens) [compound 503]", "“+++” (≥50 = +++)"],
  ["14 (AAYGGLNEKSFV; listed as Homo sapiens) [compound 14]", "“+++” (≥50 = +++)"],
  ["499 (KIFDIDEAEEGV; listed as Homo sapiens) [compound 499]", "“++” (≥20% = ++)"],
  ["152 (ILFEDIFDV; listed as Homo sapiens) [compound 152]", "“+++” (≥50 = +++)"],
  ["123 (NLWDLTDASVV; listed as Homo sapiens) [compound 123]", "“+++” (≥50 = +++)"],
  ["68 (SLMELPRGLFL; listed as Homo sapiens) [compound 68]", "“++++” (≥75% = ++++)"],
  ["359 (YLLPESVDL; listed as Homo sapiens) [compound 359]", "“+++” (≥50 = +++)"],
  ["329 (FLVTLNNVEV; listed as Homo sapiens) [compound 329]", "“++++” (≥75% = ++++)"]
]}

Name the recorded Peptide exchange (MHC class I binding score, peptide exchange yield) for 274 (SLLFSLFEA; listed as Homo sapiens) [compound 274] . “++” (≥20% = ++)
